assay: AUC (0 to 8 hrs) in rat at 3 mg/kg, po administered in 10% PEG300/90% PBS; assay type: ADME, organism-based; parameters: time < 8 hr, dose 3 mg/kg, route oral; settings: plasma
measurement_name: AUC(0-t) at 8 h (µM·h)

substance_smiles=NC[C@]1(c2cccc(Cl)c2)CC[C@H](n2nc(-c3cccnc3)ccc2=O)CC1 measurement_name="AUC(0-t) at 8 h" units_symbol=µM·h numeric_readout=4.01

---

assay: AUC (0 to 8 hrs) in rat at 3 mg/kg, po administered in sodium acetate buffer at pH 4.63; format: ADME, organism-based; set-up: time < 8 hr, dose 3 mg/kg, route oral; details: plasma
measurement_name: AUC(0-t) at 8 h (µM·h)

substance_smiles=NC[C@]1(c2cccc(Cl)c2)CC[C@H](N2CCc3c(nc(C(F)(F)F)nc3C3CC3)C2=O)CC1 units_symbol=µM·h numeric_readout=7.91

---

experiment: Half life in rat at 1 mg/kg, iv administered in sodium acetate buffer at pH 4.63; assay type: ADME, organism-based; set-up: dose 1 mg/kg, route intravenous; conditions: in vivo
measurement_name: half-life (h)

substance_smiles=NC[C@]1(c2cccc(Cl)c2)CC[C@H](N2CCc3c(nc(C(F)(F)F)nc3C3CC3)C2=O)CC1 numeric_readout=2.3

---

experiment: Cmax in rat at 3 mg/kg, po administered in 10% PEG300/90% PBS; type: ADME, organism-based; parameters: dose 3 mg/kg, route oral; conditions: in vivo
measurement_name: Cmax (nM)

substance_smiles=NC[C@]1(c2cccc(Cl)c2)CC[C@H](n2nc(-c3cccnc3)ccc2=O)CC1 measurement_name=Cmax numeric_readout=921

---

assay: Volume of distribution at steady state in rat at 1 mg/kg, iv administered in 10% PEG300/90% PBS; format: ADME, organism-based; set-up: dose 1 mg/kg, route intravenous; settings: in vivo, read-out: Vdss
measurement_name: Vd (L/kg)

substance_smiles=NC[C@]1(c2cccc(Cl)c2)CC[C@H](n2nc(-c3cccnc3)ccc2=O)CC1 numeric_readout=3.9

---

IC50 values recorded for Voltage-gated inwardly rectifying potassium channel KCNH2 (Homo sapiens)
measurement_name: IC50 (µM)

substance_smiles=NC[C@]1(c2cccc(Cl)c2)CC[C@H](n2nc(-c3cccnc3)ccc2=O)CC1 target_system="Voltage-gated inwardly rectifying potassium channel KCNH2 (Homo sapiens)" result_operator== numeric_readout=4.4
substance_smiles=NC[C@]1(c2cccc(Cl)c2)CC[C@H](N2CCc3c(nc(C(F)(F)F)nc3C3CC3)C2=O)CC1 target_system="Voltage-gated inwardly rectifying potassium channel KCNH2 (Homo sapiens)" result_operator== numeric_readout=0.26
substance_smiles=NC[C@]1(c2cccc(Cl)c2)CC[C@H](N2CCn3c(nnc3C(F)(F)F)C2=O)CC1 target_system="Voltage-gated inwardly rectifying potassium channel KCNH2 (Homo sapiens)" result_operator=> numeric_readout=30

---

experiment: Half life in rat at 1 mg/kg, iv administered in PBS buffer at pH 6.8; assay type: ADME, organism-based; set-up: dose 1 mg/kg, route intravenous; conditions: in vivo
measurement_name: half-life (h)

substance_smiles=NC[C@]1(c2cccc(Cl)c2)CC[C@H](N2CCn3c(nnc3C(F)(F)F)C2=O)CC1 measurement_name=half-life numeric_readout=2.7

---

test: Intrinsic clearance in rat liver microsomes; assay type: ADME
measurement_name: CLint (µL/min/mg)

substance_smiles=NC[C@]1(c2cccc(Cl)c2)CC[C@H](N2CCn3c(nnc3C(F)(F)F)C2=O)CC1 measurement_name=CLint numeric_readout=21.9
substance_smiles=NC[C@]1(c2cccc(Cl)c2)CC[C@H](n2nc(-c3cccnc3)ccc2=O)CC1 measurement_name=CLint numeric_readout=51.1
substance_smiles=NC[C@]1(c2cccc(Cl)c2)CC[C@H](N2CCc3c(nc(C(F)(F)F)nc3C3CC3)C2=O)CC1 measurement_name=CLint numeric_readout=43.4
